Target: RPA WT (RPA70-RPA32-RPA14) (human, UniProt P27694;P15927;P35244 1-616;1-270;1-121)
Sequence (P27694 whole entry, chain 1 of 3): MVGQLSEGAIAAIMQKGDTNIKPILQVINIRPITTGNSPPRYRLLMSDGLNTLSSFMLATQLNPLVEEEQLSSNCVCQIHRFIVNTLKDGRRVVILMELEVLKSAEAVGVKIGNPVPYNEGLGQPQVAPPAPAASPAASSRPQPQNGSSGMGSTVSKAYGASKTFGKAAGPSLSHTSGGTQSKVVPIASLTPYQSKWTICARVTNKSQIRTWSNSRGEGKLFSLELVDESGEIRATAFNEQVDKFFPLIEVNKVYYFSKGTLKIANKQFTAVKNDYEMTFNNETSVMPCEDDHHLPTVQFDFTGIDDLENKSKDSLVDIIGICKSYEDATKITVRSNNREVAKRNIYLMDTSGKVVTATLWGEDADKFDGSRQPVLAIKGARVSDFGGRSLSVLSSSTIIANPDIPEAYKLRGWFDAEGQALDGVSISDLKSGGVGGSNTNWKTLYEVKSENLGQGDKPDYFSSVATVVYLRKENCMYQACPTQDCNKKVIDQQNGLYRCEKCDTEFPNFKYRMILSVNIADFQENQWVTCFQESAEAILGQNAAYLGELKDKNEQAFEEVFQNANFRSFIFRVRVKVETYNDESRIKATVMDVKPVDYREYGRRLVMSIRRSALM
Sequence (P15927 whole entry, chain 2 of 3): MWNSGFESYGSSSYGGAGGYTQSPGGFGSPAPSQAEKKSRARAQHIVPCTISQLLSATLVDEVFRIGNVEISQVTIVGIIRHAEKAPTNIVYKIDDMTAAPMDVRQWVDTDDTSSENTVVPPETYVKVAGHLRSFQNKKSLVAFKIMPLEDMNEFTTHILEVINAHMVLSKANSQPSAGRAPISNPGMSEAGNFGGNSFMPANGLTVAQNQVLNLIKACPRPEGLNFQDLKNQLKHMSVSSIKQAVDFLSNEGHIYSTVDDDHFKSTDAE
Sequence (P35244 whole entry, chain 3 of 3): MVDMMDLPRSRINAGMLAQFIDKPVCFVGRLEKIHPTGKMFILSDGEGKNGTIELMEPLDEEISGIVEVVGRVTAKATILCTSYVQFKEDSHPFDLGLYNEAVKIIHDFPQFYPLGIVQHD
Assay: fluorescence anisotropy; 200 mM LiCl; FA: 200 mM NaCl, KCl or LiCl, 20 mM HEPES pH 7.4, 1 mM DTT, 22-25 C, 375 or 750 pM oligo, Kd,app +/- SEM; EMSA: 20 mM HEPES pH 7.4, 200 mM KCl, 1 nM 32P oligo
Conditions: protein: recombinant; tags: 6xHis N-term on RPA70 and RPA14; copies: 1;1;1; label: 5' fluorescein; intramolecular G4 at 3' end, 5' tail; linear in LiCl
Quantity Kind: pKd
Just so you know, pKd here is -log10 of the concentration in molar units; reply with that number alone.

Query: Quick one: pKd of AGTGTGAGTGTGAGTGTTAGGGTTAGGGTTAGGGTTAGGG (structured_DNA) [Tel40 3' G4] ?
Result: 9.17
